Origin of measurements: patent US8829014B2

Each record here notes measured inhibition in vivo at 50 mg/kg.
System: carageenan-induced edema
assay overview: Carrageenan-induced rat paw edema test (anti-inflammatory activity)
Assay type: in vivo, Sprague-Dawley rats
measurement conditions: Rattus norvegicus, po, 3 h, carrageenan-induced rat paw edema; defined in Example 397; read-out: % Protection

| smiles text | measurement target | inhibition in vivo at 50 mg/kg, % |
| --- | --- | --- |
| CNc1nc(C)c(-c2nc3ccccc3c(=O)n2-c2ccc(C(C)=O)cc2)s1 | carageenan-induced edema | 42 |
| Cc1cccc(-n2c(-c3sc(Nc4ccc(Cl)cc4)nc3-c3ccccc3)nc3ccccc3c2=O)c1 | carageenan-induced edema | 38 |
| COc1ccccc1-n1c(-c2sc(Nc3ccc(Cl)cc3)nc2-c2ccccc2)nc2ccccc2c1=O | carageenan-induced edema | 31 |
| CCOC(=O)Nc1nc(C)c(-c2nc3ccccc3c(=O)n2-c2ccccc2)s1 | carageenan-induced edema | 12 |
| O=C(Nc1nc(-c2ccccc2)c(-c2nc3ccccc3c(=O)n2-c2ccc(Cl)cc2)s1)c1ccccc1 | carageenan-induced edema | 83 |
| Cc1ccccc1-n1c(-c2sc(Nc3ccc(Cl)cc3)nc2C)nc2ccccc2c1=O | carageenan-induced edema | 45 |
| CNc1nc(C)c(-c2nc3ccccc3c(=O)n2-c2ccc(Cl)cc2)s1 | carageenan-induced edema | 71 |
| O=c1c2ccccc2nc(-c2sc(Nc3ccc(Cl)cc3)nc2-c2ccccc2)n1-c1ccccc1 | carageenan-induced edema | 87 |
| Cc1nc(Nc2ccccc2)sc1-c1nc2ccccc2c(=O)n1-c1ccc(Cl)cc1 | carageenan-induced edema | 72 |
| CCOC(=O)Nc1nc(C)c(-c2nc3ccccc3c(=O)n2-c2ccc(C)cc2)s1 | carageenan-induced edema | 24 |
| Cc1nc(Nc2ccc(Cl)cc2)sc1-c1nc2ccccc2c(=O)n1-c1ccccc1 | carageenan-induced edema | 4 |
| O=c1c2ccccc2nc(-c2sc(Nc3ccccc3)nc2-c2ccccc2)n1-c1ccc(Cl)cc1 | carageenan-induced edema | 81 |
| Cc1ccc(C(=O)Nc2nc(-c3ccccc3)c(-c3nc4ccccc4c(=O)n3-c3ccccc3)s2)cc1 | carageenan-induced edema | 77 |
| O=c1c2ccccc2nc(-c2sc(Nc3ccc(Cl)cc3)nc2-c2ccccc2)n1-c1ccc(Cl)cc1 | carageenan-induced edema | 84 |
| O=c1c2ccccc2nc(-c2sc(Nc3ccccc3)nc2-c2ccccc2)n1-c1ccccc1 | carageenan-induced edema | 60 |
| COc1ccc(-n2c(-c3sc(Nc4ccccc4)nc3-c3ccccc3)nc3ccccc3c2=O)cc1 | carageenan-induced edema | 85 |
| COC(=O)Nc1nc(C)c(-c2nc3ccccc3c(=O)n2-c2ccccc2)s1 | carageenan-induced edema | 0 |
| CC(=O)c1ccc(-n2c(-c3sc(Nc4ccc(Cl)cc4)nc3-c3ccccc3)nc3ccccc3c2=O)cc1 | carageenan-induced edema | 23 |
| Cc1ccccc1-n1c(-c2sc(Nc3ccc(Cl)cc3)nc2-c2ccccc2)nc2ccccc2c1=O | carageenan-induced edema | 51 |
| Cc1ccc(-n2c(-c3sc(Nc4ccc(Cl)cc4)nc3-c3ccccc3)nc3ccccc3c2=O)cc1 | carageenan-induced edema | 56 |
| COc1cccc(-n2c(-c3sc(Nc4ccccc4)nc3-c3ccccc3)nc3ccccc3c2=O)c1 | carageenan-induced edema | 38 |
| COc1ccc(-n2c(-c3sc(Nc4ccc(Cl)cc4)nc3C)nc3ccccc3c2=O)cc1 | carageenan-induced edema | 50 |
| COc1ccc(-n2c(-c3sc(NC(=O)c4ccccc4)nc3-c3ccccc3)nc3ccccc3c2=O)cc1 | carageenan-induced edema | 24 |
| CCOC(=O)Nc1nc(-c2ccccc2)c(-c2nc3ccccc3c(=O)n2-c2ccc(C)cc2)s1 | carageenan-induced edema | 31 |
| CCOC(=O)Nc1nc(C)c(-c2nc3ccccc3c(=O)n2-c2ccc(Cl)cc2)s1 | carageenan-induced edema | 65 |
| Cc1ccccc1-n1c(-c2sc(Nc3ccccc3)nc2C)nc2ccccc2c1=O | carageenan-induced edema | 42 |
| Cc1ccc(-n2c(-c3sc(Nc4ccc(Cl)cc4)nc3C)nc3ccccc3c2=O)cc1 | carageenan-induced edema | 37 |
| CCOC(=O)Nc1nc(-c2ccccc2)c(-c2nc3ccccc3c(=O)n2-c2ccccc2C)s1 | carageenan-induced edema | 52 |
| CCOC(=O)Nc1nc(-c2ccccc2)c(-c2nc3ccccc3c(=O)n2-c2ccc(OC)cc2)s1 | carageenan-induced edema | 20 |
| Cc1nc(Nc2ccc(Cl)cc2)sc1-c1nc2ccccc2c(=O)n1-c1ccccc1Cl | carageenan-induced edema | 58 |
| COC(=O)Nc1nc(-c2ccccc2)c(-c2nc3ccccc3c(=O)n2-c2ccc(Cl)cc2)s1 | carageenan-induced edema | 83 |
| CCOC(=O)Nc1nc(C)c(-c2nc3ccccc3c(=O)n2-c2ccc(C(C)=O)cc2)s1 | carageenan-induced edema | 69.7 |
